Listed below: GI50 values for each entry.
- Test system: LOX IMVI melanoma
- assay protocol: NCI tumour cell line growth inhibition, 48 h

1) O=[N+]([O-])/C=C/c1ccc([N+](=O)[O-])cc1: 1.32 µM

-- ask // fetch GI50 given entry CN1C(=O)C(c2c[nH]c3ccccc23)=C(c2c(-c3c[nH]c4ccccc34)[nH]c3ccccc23)C1=O
-- reply 4.67 µM

-- ask Kindly indicate its recorded GI50. Item: COc1ccc(C2=C(c3cc(OC)c(OC)c(OC)c3)C(=O)OC2)cc1OC
-- reply 0.428 µM

-- ask Tell me its GI50 given O=C(/C=C\c1ccc2ccccc2n1)c1cc(Cl)ccc1O as the entry.
-- reply 2.84 µM

-- ask State its GI50 for this compound: Cc1ccc(F)cc1NC(=O)c1cc(Cl)ccc1Nc1ccccc1
-- reply > 100 µM

-- ask State its GI50 for this compound: Cc1cn2c(=O)n(c1=O)Cc1ccccc1C2
-- reply 32 µM

-- ask Return reported GI50. Input compound: Cc1ccc(/C(=C/C=C(C#N)C#N)Sc2ccccn2)cc1
-- reply 1.83 µM

-- ask Annotate the compound CC(=O)OC12CC(C)C3(O)C4C=C(C)C(=O)[C@@]4(O)CC(CO)=C[C@H]3C1C2(C)C (stereo partly drawn) with its measured GI50.
-- reply > 1000 µM
